test: molar heat capacity at constant pressure; settings: 293.15 K; 101.33 kPa; Crystal; Small sample (50 mg) DSC
For each record, write down the corresponding molar heat capacity at constant pressure.
Form entry: value (J/K/mol) — number only.

Which molar heat capacity at constant pressure reading was recorded for the molecule OC[C@H]1O[C@@H](O[C@H]2[C@H](O)[C@@H](O)[C@H](O)O[C@@H]2CO)[C@H](O)[C@@H](O)[C@@H]1O ?
431

Which molar heat capacity at constant pressure reading was recorded for the molecule CC(=O)N[C@@H](C=O)[C@@H](O)[C@H](O)[C@H](O)CO ?
276.4

Which molar heat capacity at constant pressure reading was recorded for the molecule CO[C@H]1O[C@H](CO)[C@@H](O)[C@H](O)[C@H]1O [methyl-α-D-glucopyranoside] ?
231

Which molar heat capacity at constant pressure reading was recorded for the molecule O=C[C@H](O)[C@H](O)[C@H](O)CO ?
179.4

Cited source for all entries: the NIST ThermoML archive (doi:10.1016/j.jct.2008.08.007)
